# target-desc: Voltage-dependent L-type calcium channel subunit alpha-1C (DHP site) (Rattus norvegicus, UniProt P22002)
# Sequence (P22002 whole entry): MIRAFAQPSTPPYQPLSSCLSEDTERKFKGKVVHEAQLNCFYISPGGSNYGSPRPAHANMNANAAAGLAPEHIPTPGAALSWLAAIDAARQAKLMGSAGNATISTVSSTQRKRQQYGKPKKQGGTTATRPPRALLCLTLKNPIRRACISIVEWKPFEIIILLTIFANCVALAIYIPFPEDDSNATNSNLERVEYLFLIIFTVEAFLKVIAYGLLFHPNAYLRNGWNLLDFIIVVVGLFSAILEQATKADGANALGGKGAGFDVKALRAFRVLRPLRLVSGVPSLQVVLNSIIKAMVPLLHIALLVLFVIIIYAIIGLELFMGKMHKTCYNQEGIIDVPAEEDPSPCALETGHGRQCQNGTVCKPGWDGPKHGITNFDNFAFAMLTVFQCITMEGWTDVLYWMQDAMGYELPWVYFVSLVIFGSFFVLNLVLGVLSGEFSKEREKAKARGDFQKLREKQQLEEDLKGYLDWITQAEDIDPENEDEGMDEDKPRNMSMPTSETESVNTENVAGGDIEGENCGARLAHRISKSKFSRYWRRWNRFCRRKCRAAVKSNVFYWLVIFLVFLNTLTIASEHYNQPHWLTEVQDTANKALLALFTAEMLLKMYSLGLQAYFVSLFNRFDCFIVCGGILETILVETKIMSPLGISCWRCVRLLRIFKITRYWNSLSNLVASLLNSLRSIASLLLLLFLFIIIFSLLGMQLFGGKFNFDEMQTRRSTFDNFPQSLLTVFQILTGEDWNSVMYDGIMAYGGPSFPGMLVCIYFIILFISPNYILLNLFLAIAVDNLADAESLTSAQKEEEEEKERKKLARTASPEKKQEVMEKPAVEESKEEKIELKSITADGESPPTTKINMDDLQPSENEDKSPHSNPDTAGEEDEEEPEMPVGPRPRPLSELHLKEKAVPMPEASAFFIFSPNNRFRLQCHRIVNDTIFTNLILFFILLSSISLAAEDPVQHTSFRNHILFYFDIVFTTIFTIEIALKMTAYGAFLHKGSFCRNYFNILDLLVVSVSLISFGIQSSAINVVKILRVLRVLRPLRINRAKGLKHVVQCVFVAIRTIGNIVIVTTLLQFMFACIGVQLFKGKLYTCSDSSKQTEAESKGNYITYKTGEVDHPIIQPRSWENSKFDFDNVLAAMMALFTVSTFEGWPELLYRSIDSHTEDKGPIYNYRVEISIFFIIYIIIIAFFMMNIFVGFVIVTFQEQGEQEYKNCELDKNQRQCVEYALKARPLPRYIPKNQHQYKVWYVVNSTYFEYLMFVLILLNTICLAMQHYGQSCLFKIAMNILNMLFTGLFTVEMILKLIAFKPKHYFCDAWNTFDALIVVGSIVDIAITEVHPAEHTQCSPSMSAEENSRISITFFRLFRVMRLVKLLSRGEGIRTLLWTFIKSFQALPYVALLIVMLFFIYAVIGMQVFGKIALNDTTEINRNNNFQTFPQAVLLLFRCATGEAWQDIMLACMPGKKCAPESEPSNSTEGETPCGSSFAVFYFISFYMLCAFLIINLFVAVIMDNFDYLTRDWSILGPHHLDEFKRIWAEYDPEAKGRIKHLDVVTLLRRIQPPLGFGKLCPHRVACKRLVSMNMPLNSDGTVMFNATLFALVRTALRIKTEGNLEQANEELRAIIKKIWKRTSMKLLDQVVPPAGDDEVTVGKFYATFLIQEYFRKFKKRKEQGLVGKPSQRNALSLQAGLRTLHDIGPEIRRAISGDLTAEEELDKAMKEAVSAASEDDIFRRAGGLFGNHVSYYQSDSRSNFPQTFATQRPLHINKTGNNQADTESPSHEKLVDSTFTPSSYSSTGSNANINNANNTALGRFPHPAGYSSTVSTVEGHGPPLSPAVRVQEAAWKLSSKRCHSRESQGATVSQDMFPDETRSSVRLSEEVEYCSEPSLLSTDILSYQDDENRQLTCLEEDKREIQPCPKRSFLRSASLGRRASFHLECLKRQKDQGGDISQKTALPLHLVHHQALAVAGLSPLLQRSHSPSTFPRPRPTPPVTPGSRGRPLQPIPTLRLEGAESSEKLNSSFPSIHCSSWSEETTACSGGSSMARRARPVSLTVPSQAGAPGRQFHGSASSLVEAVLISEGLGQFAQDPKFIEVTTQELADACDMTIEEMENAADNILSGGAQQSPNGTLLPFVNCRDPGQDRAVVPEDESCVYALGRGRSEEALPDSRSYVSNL
# assay-overview: CA+/DHPSI/RA Eurofins-Panlabs selectivity data (BI)
# settings: compound concentration 10 uM, read-out: % Ctrl

# compound, activity at 10 µM
rows = [
    ("CCOCCn1cc(C(=O)Nc2ccc(-n3nc(-c4cccnc4)cc3C(F)(F)F)cn2)ccc1=O [BI 1935]", "94.5% (not active)"),
]

----------
# target-desc: Voltage-dependent L-type calcium channel subunit alpha-1C (diltiazem site) (Rattus norvegicus, UniProt P22002)
# Sequence (P22002 whole entry): as above
# assay-overview: CA+/DILSI/RA Eurofins-Panlabs selectivity data (BI)
# settings: compound concentration 10 uM, read-out: % Ctrl

# molecule, activity at 10 µM
records = [
    ("CCOCCn1cc(C(=O)Nc2ccc(-n3nc(-c4cccnc4)cc3C(F)(F)F)cn2)ccc1=O [BI 1935]", "95% (not active)"),
]

Values from ChEMBL document CHEMBL4507283
